Reference source: patent US20240270821A1

Target: hGLP-1R (Homo sapiens, UniProt P43220)
Sequence (P43220 24-463): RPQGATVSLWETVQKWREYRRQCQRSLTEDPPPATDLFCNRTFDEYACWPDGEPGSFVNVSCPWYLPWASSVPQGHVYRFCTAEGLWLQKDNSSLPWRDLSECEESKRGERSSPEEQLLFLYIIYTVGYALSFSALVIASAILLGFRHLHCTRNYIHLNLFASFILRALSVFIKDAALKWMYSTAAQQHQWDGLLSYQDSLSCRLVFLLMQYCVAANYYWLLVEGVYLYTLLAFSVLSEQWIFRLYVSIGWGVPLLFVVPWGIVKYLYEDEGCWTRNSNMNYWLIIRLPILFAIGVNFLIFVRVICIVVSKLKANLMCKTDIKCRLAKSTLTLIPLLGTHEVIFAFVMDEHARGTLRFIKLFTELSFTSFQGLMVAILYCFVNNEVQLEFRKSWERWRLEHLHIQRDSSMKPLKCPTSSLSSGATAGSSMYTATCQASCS
Assay: Functional cAMP activation in the presence of 0.1% casein (no HSA);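 also: intracellular cAMP rise after 30 min at 37 °C read by HTRF, normalized between buffer only (0%) and maximal control ligand (100%), four-parameter variable-slope fit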
Assay type: cell-based
Conditions: read-out: Relative cAMP EC50, hGLP-1R
Starred links: 1 amine or outer side, 2 acyl side, 3 side chain; linkers in the order of their positions; H or OH if unused. Non-standard residues stand in square brackets, D forms with d. Groups on a side chain read outwards from the residue. No end group written: not given here. *: point of attachment. C18 diacid = O=C(O)CCCCCCCCCCCCCCCCC(=O)*; αMePhe(2-F) = C[C@](N)(Cc1ccccc1F)C(=O)O; γGlu = O=C(O)[C@H](CCC(=O)[*:2])N[*:1]; αMe4Pal = C[C@](N)(Cc1ccncc1)C(=O)O; αMeY = C[C@](N)(Cc1ccc(O)cc1)C(=O)O; 4Pal = N[C@@H](Cc1ccncc1)C(=O)O; αMeL = CC(C)C[C@](C)(N)C(=O)O; αMeS = C[C@](N)(CO)C(=O)O; Orn = NCCC[C@H](N)C(=O)O; AEEA = NCCOCCOCC(=O)O; Aib = CC(C)(N)C(=O)O
Label Criterion met when EC50 < 0.3 nM; otherwise Criterion not met.

Example cases with answers are listed next.
SUBSTANCE	TARGET_OF_ASSAY	GROUP_LABEL
H-Y[Aib]QGT[αMePhe(2-F)]TSD[4Pal]SI[αMeL]LD[Orn]K([AEEA-γGlu-C18 diacid])AQ[αMe4Pal]EFI[dE][αMeY]LIEGGPSSGAPPPSGS-NH2 [Example 640]	hGLP-1R (Homo sapiens, UniProt P43220)	Criterion met
H-Y[Aib]QGT[αMePhe(2-F)]TSD[4Pal][αMeS]I[αMeL]LD[Orn]K([γGlu-Glu-C18 diacid])AQ[Aib][Orn]FI[dE][αMeY]LSEGGPSSGEPPPSGTE-NH2 [Example 565]	hGLP-1R (Homo sapiens, UniProt P43220)	Criterion not met
Y[Aib]QGT[αMePhe(2-F)]TSD[4Pal][αMeS]I[αMeL]LD[Orn]K([γGlu-γGlu-C18 diacid])AQ[Aib][Orn]FI[dE]YLIEGGPSSGEPPPSGTE-NH2 [Example 521]	hGLP-1R (Homo sapiens, UniProt P43220)	Criterion not met
H-Y[Aib]QGT[αMePhe(2-F)]TSD[4Pal][αMeS]I[αMeL]LD[Orn]K([AEEA-γGlu-C18 diacid])AQ[Aib][Orn]FI[dE][αMeY]LIEGGPSSGEPPPEEG-NH2 [Example 462]	hGLP-1R (Homo sapiens, UniProt P43220)	Criterion met

We now examine a further substance.
QUERY: Consider the substance H-Y[Aib]QGT[αMePhe(2-F)]TSD[4Pal][αMeS]I[αMeL]LD[Orn]K([AEEA-γGlu-C18 diacid])AQ[Aib]NFIEYLIEGGPSSGEPPPEGE-NH2 [Example 483] . Is its EC50 strictly less than 0.3 nM?
RESULT: Criterion met
